Listing: pEC50 of selected substances
- assay target: hGIPR (Homo sapiens, UniProt P48546)
- Sequence (P48546 22-466): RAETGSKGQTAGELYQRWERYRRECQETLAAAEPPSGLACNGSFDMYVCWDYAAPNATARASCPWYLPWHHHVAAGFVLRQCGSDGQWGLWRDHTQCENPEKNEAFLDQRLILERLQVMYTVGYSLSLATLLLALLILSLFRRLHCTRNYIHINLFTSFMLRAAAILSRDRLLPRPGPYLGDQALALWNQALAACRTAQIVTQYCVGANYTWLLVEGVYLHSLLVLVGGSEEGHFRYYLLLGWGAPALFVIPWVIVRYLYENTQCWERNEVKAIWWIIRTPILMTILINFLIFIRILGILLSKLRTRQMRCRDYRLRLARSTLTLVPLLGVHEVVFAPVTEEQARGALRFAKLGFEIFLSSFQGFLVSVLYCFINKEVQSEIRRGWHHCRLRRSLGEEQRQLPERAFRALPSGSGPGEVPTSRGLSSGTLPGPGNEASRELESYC
- assay info: Functional cAMP activity in the presence of 1% HSA
- Assay type: cell-based
- run parameters: read-out: cAMP Rel EC50, hGIPR
pEC50: −log10 of the molar value. Starred links: 1 amine or outer side, 2 acyl side, 3 side chain; linkers in the order of their positions; H or OH if unused. Non-standard residues stand in square brackets, D forms with d. Groups on a side chain read outwards from the residue. No end group written: not given here. *: point of attachment. C18 diacid = O=C(O)CCCCCCCCCCCCCCCCC(=O)*; αMePhe(2-F) = C[C@](N)(Cc1ccccc1F)C(=O)O; γGlu = O=C(O)[C@H](CCC(=O)[*:2])N[*:1]; αMe4Pal = C[C@](N)(Cc1ccncc1)C(=O)O; αMeY = C[C@](N)(Cc1ccc(O)cc1)C(=O)O; 4Pal = N[C@@H](Cc1ccncc1)C(=O)O; αMeL = CC(C)C[C@](C)(N)C(=O)O; αMeS = C[C@](N)(CO)C(=O)O; Orn = NCCC[C@H](N)C(=O)O; AEEA = NCCOCCOCC(=O)O; Aib = CC(C)(N)C(=O)O
quantity measured: pEC50

1. Y[Aib]QGTFTSD[4Pal]SR[αMeL]LDKK([AEEA-γGlu-C18 diacid])AQ[αMe4Pal]AFIE[αMeY]LIEGGPSSGAPPPSGS-NH2 [Example 843]	7.48
2. H-Y[Aib]QGTFTSDFS[Orn][αMeL]LDKK([AEEA-γGlu-C18 diacid])AQ[Aib]AFIEYLLE[Aib]GPSSG[Aib]PPPSGS-NH2 [Example 239]	7.92
3. H-Y[Aib]QGT[αMePhe(2-F)]TSD[4Pal]SI[αMeL]LD[Orn]K([γGlu-γGlu-C18 diacid])AQ[αMe4Pal][Orn]FI[dE][αMeY]LIEGGPSSGEPPPEEG-NH2 [Example 681]	9.40
4. H-Y[Aib]QGTFTSD[4Pal]SQ[αMeL]LD[Orn]K([γGlu-γGlu-C18 diacid])AQ[αMe4Pal]AFIEYLIA[Aib]GPSSGAPPPSGSEE-NH2 [Example 1091]	8.24
5. H-Y[Aib]QGT[αMePhe(2-F)]TSD[4Pal][αMeS]I[αMeL]LD[Orn]K([AEEA-AEEA-γGlu-C18 diacid])AQ[Aib][Orn]FIEYLIEGGPSSGEPPPSEG-NH2 [Example 491]	9.16
6. H-Y[Aib]QGTFTSD[4Pal]SQ[αMeL]LDKK([AEEA-γGlu-γGlu-C18 diacid])AQ[αMe4Pal]AFIEYLIE[Aib]GPSSGAPPPSGS-NH2 [Example 860]	7.72
7. Y[Aib]QGTFTSDFS[Orn][αMeL]LDKK([AEEA-γGlu-C18 diacid])AQ[Aib]AFIEYLIE[Aib]GPSSGAPPPSGS-NH2 [Example 796]	7.76
8. H-Y[Aib]QGT[αMePhe(2-F)]TSD[4Pal][αMeS]I[αMeL]LD[Orn]K([AEEA-γGlu-C18 diacid])AQ[Aib][Orn]FIEYLIEGGPSSGEPPPEEG-NH2 [Example 476]	8.89
9. H-Y[Aib]QGT[αMePhe(2-F)]TSD[4Pal][αMeS]I[αMeL]LD[Orn]K([AEEA-γGlu-C18 diacid])AQ[αMe4Pal]EFI[dE][αMeY]LVEGGPSSGEPPPSGSE-NH2 [Example 752]	8.76
10. H-Y[Aib]QGT[αMePhe(2-F)]TSD[4Pal][αMeS]I[αMeL]LD[Orn]K([AEEA-γGlu-C18 diacid])AQ[Aib][Orn]FI[dE]YLIEGGPSSGEPPPSGTE-NH2 [Example 501]	8.63
11. H-Y[Aib]QGTFTSD[4Pal]SQ[αMeL]LD[Orn]K([γGlu-γGlu-C18 diacid])AQ[αMe4Pal]AFIEYLLAGGPSSGAPPPSGSEE-NH2 [Example 1056]	7.53
